# Tested on: HCC-366
# protocol description: relative viability (nuclei count vs DMSO), 5 days (fraction); higher = more cells survive
# reported conditions: first compound 0.01581 µM
Overview of reported relative viability across a group of compounds:
Quick one: just the number, no unit, thanks!

Example cases with answers are listed next.
COc1cc2nccc(Oc3ccc(NC(=O)Nc4cc(C)on4)c(Cl)c3)c2cc1OC [Tivozanib] + CC1(C)CCC(c2ccc(Cl)cc2)=C(CN2CCN(c3ccc(C(=O)NS(=O)(=O)c4ccc(N[C@H](CCN5CCOCC5)CSc5ccccc5)c(S(=O)(=O)C(F)(F)F)c4)cc3)CC2)C1 [Navitoclax] (partner 0.5 µM) | 1.05
COc1cc2nccc(Oc3ccc(NC(=O)Nc4cc(C)on4)c(Cl)c3)c2cc1OC [Tivozanib] + NC(=O)Nc1cc(-c2cccc(F)c2)sc1C(=O)N[C@H]1CCCNC1 [AZD7762] (partner 0.2 µM) | 0.245
Nc1ccn([C@@H]2O[C@H](CO)[C@@H](O)[C@@H]2O)c(=O)n1 [Cytarabine] + NC(=O)Nc1cc(-c2cccc(F)c2)sc1C(=O)N[C@H]1CCCNC1 [AZD7762] (partner 0.2 µM) | 0.0915

Prompt line: Item COc1cc2nccc(Oc3ccc(NC(=O)Nc4cc(C)on4)c(Cl)c3)c2cc1OC [Tivozanib] + COc1cccc2cc(-c3nc([C@H]4CC[C@H](C(=O)O)CC4)n4ncnc(N)c34)[nH]c12 [OSI-027] (partner 0.5 µM) : provide relative viability
Response line: 0.849

Prompt line: Report relative viability, nothing else, for this compound: COc1cc2nccc(Oc3ccc(NC(=O)Nc4cc(C)on4)c(Cl)c3)c2cc1OC [Tivozanib] + Nc1ncn([C@H]2C[C@H](O)[C@@H](CO)O2)c(=O)n1 [Decitabine] (partner 2 µM)
Response line: 0.306

Prompt line: Output measured relative viability for this item: Nc1ccn([C@@H]2O[C@H](CO)[C@@H](O)[C@@H]2O)c(=O)n1 [Cytarabine] + COc1cc2c(Oc3ccc(NC(=O)C4(C(=O)Nc5ccc(F)cc5)CC4)cc3F)ccnc2cc1OCCCN1CCOCC1 [Foretinib] (partner 0.25 µM)
Response line: 0.831

Prompt line: Give reported relative viability value for Nc1ccn([C@@H]2O[C@H](CO)[C@@H](O)[C@@H]2O)c(=O)n1 [Cytarabine] + COc1cccc2cc(-c3nc([C@H]4CC[C@H](C(=O)O)CC4)n4ncnc(N)c34)[nH]c12 [OSI-027] (partner 0.5 µM)
Response line: 0.61

Prompt line: Let me know recorded relative viability for COc1cc2nccc(Oc3ccc(NC(=O)Nc4cc(C)on4)c(Cl)c3)c2cc1OC [Tivozanib] + CC(C)C[C@H](NC(=O)[C@H](Cc1ccccc1)NC(=O)c1cnccn1)B(O)O [Bortezomib] (partner 0.002 µM) , thanks.
Response line: 1.05

Prompt line: // fetch relative viability given entry COc1cc2nccc(Oc3ccc(NC(=O)Nc4cc(C)on4)c(Cl)c3)c2cc1OC [Tivozanib] + N=C(N)NC(=N)NCCc1ccccc1 [Phenformin] (partner 250 µM)
Response line: 0.588

---

# Tested on: LK-2
# protocol description: relative viability (nuclei count vs DMSO), 5 days (fraction); higher = more cells survive
# reported conditions: first compound 0.253 µM
Measured relative viability values are reported for all entries that follow.
# respond with the number and nothing more

O=c1[nH]c2ccccc2n1C1CCN(CCCC(c2ccc(F)cc2)c2ccc(F)cc2)CC1 [Pimozide] + Cc1nc(Nc2ncc(C(=O)Nc3c(C)cccc3Cl)s2)cc(N2CCN(CCO)CC2)n1 [Dasatinib] (partner 0.075 µM) | 0.273
O=c1[nH]c2ccccc2n1C1CCN(CCCC(c2ccc(F)cc2)c2ccc(F)cc2)CC1 [Pimozide] + C[C@@H](Oc1cc(-c2cnn(C3CCNCC3)c2)cnc1N)c1c(Cl)ccc(F)c1Cl [Crizotinib] (partner 1 µM) | 0.224

Prompt line: State measured relative viability of the compound Cc1cnc(-c2cnc(NCCNc3ccc(C#N)cn3)nc2-c2ccc(Cl)cc2Cl)[nH]1 + CC(=O)Nc1cccc(-n2c(=O)n(C3CC3)c(=O)c3c(Nc4ccc(I)cc4F)n(C)c(=O)c(C)c32)c1 [Trametinib] (partner 0.02 µM) with LK-2.
Response line: 0.833

---

relative viability: recorded values
# Tested on: UMC-11
# protocol description: relative viability (nuclei count vs DMSO), 5 days (fraction); higher = more cells survive
# reported conditions: first compound 0.05 µM
Note: the reply should be a number with no unit written.

Before answering, review these 6 worked examples.
COc1cc2nccc(Oc3ccc(NC(=O)Nc4cc(C)on4)c(Cl)c3)c2cc1OC [Tivozanib] + O=C(CCCCCCC(=O)Nc1ccccc1)NO [Vorinostat] (partner 1 µM) | 0.349
COc1cc2nccc(Oc3ccc(NC(=O)Nc4cc(C)on4)c(Cl)c3)c2cc1OC [Tivozanib] + C[C@]1(O)C[C@@H](c2nc(-c3ccc4ccc(-c5ccccc5)nc4c3)c3c(N)nccn32)C1 [Linsitinib] (partner 1 µM) | 1.06
Nc1ccn([C@@H]2O[C@H](CO)[C@@H](O)[C@@H]2O)c(=O)n1 [Cytarabine] + CC(=O)Nc1cccc(-n2c(=O)n(C3CC3)c(=O)c3c(Nc4ccc(I)cc4F)n(C)c(=O)c(C)c32)c1 [Trametinib] (partner 0.02 µM) | 0.373
Nc1ccn([C@@H]2O[C@H](CO)[C@@H](O)[C@@H]2O)c(=O)n1 [Cytarabine] + C[C@@H](Oc1cc(-c2cnn(C3CCNCC3)c2)cnc1N)c1c(Cl)ccc(F)c1Cl [Crizotinib] (partner 1 µM) | 0.336
COc1cc2nccc(Oc3ccc(NC(=O)Nc4cc(C)on4)c(Cl)c3)c2cc1OC [Tivozanib] + CC(=O)c1c(C)c2cnc(Nc3ccc(N4CCNCC4)cn3)nc2n(C2CCCC2)c1=O [Palbociclib] (partner 0.5 µM) | 0.32
Nc1ccn([C@@H]2O[C@H](CO)[C@@H](O)[C@@H]2O)c(=O)n1 [Cytarabine] + CS(=O)(=O)CCNCc1ccc(-c2ccc3ncnc(Nc4ccc(OCc5cccc(F)c5)c(Cl)c4)c3c2)o1 [Lapatinib] (partner 2 µM) | 0.434

Next molecule, please.
Prompt line: For Nc1ccn([C@@H]2O[C@H](CO)[C@@H](O)[C@@H]2O)c(=O)n1 [Cytarabine] + COc1cccc2cc(-c3nc([C@H]4CC[C@H](C(=O)O)CC4)n4ncnc(N)c34)[nH]c12 [OSI-027] (partner 0.5 µM) , write its relative viability.
Response line: 0.386

---

# Tested on: NCI-H2347
# protocol description: relative viability (nuclei count vs DMSO), 5 days (fraction); higher = more cells survive
# reported conditions: first compound 0.05 µM
property measured: relative viability
Write the value as a bare number.

As a guide, the following entries are already answered.
COc1cc2nccc(Oc3ccc(NC(=O)Nc4cc(C)on4)c(Cl)c3)c2cc1OC [Tivozanib] + CC1(C)CCC(c2ccc(Cl)cc2)=C(CN2CCN(c3ccc(C(=O)NS(=O)(=O)c4ccc(N[C@H](CCN5CCOCC5)CSc5ccccc5)c(S(=O)(=O)C(F)(F)F)c4)cc3)CC2)C1 [Navitoclax] (partner 0.5 µM) | 0.847
Nc1ccn([C@@H]2O[C@H](CO)[C@@H](O)[C@@H]2O)c(=O)n1 [Cytarabine] + Nc1ncn([C@H]2C[C@H](O)[C@@H](CO)O2)c(=O)n1 [Decitabine] (partner 2 µM) | 0.507
COc1cc2nccc(Oc3ccc(NC(=O)Nc4cc(C)on4)c(Cl)c3)c2cc1OC [Tivozanib] + O=C(CCCCCCC(=O)Nc1ccccc1)NO [Vorinostat] (partner 1 µM) | 0.61
COc1cc2nccc(Oc3ccc(NC(=O)Nc4cc(C)on4)c(Cl)c3)c2cc1OC [Tivozanib] + Cc1nc(NC(=O)N2CCC[C@H]2C(N)=O)sc1-c1ccnc(C(C)(C)C(F)(F)F)c1 [Alpelisib] (partner 2 µM) | 1.03
Nc1ccn([C@@H]2O[C@H](CO)[C@@H](O)[C@@H]2O)c(=O)n1 [Cytarabine] + COc1cc2c(Oc3ccc(NC(=O)C4(C(=O)Nc5ccc(F)cc5)CC4)cc3F)ccnc2cc1OCCCN1CCOCC1 [Foretinib] (partner 0.25 µM) | 0.806
Nc1ccn([C@@H]2O[C@H](CO)[C@@H](O)[C@@H]2O)c(=O)n1 [Cytarabine] + CS(=O)(=O)CCNCc1ccc(-c2ccc3ncnc(Nc4ccc(OCc5cccc(F)c5)c(Cl)c4)c3c2)o1 [Lapatinib] (partner 2 µM) | 0.764

Prompt line: Read the entry COc1cc2nccc(Oc3ccc(NC(=O)Nc4cc(C)on4)c(Cl)c3)c2cc1OC [Tivozanib] + CC(=O)Nc1cccc(-n2c(=O)n(C3CC3)c(=O)c3c(Nc4ccc(I)cc4F)n(C)c(=O)c(C)c32)c1 [Trametinib] (partner 0.02 µM) and write its reported relative viability.
Response line: 0.294

---

# System: HARA
# protocol description: relative viability (nuclei count vs DMSO), 5 days (fraction); higher = more cells survive
# reported conditions: first compound 0.5 µM
# note: exactly 0.1 is not below, so it is Criterion not met; use Criterion met for relative viability strictly under it

COc1cc2nccc(Oc3ccc(NC(=O)Nc4cc(C)on4)c(Cl)c3)c2cc1OC [Tivozanib] + COc1cc2c(Oc3ccc(NC(=O)C4(C(=O)Nc5ccc(F)cc5)CC4)cc3F)ccnc2cc1OCCCN1CCOCC1 [Foretinib] (partner 0.25 µM) | Criterion not met

Prompt line: Item COc1cc2nccc(Oc3ccc(NC(=O)Nc4cc(C)on4)c(Cl)c3)c2cc1OC [Tivozanib] + CC(=O)Nc1cccc(-n2c(=O)n(C3CC3)c(=O)c3c(Nc4ccc(I)cc4F)n(C)c(=O)c(C)c32)c1 [Trametinib] (partner 0.02 µM) : relative viability beneath 0.1, strictly?
Response line: Criterion not met

Prompt line: Please indicate whether the reported relative viability of COc1cc2nccc(Oc3ccc(NC(=O)Nc4cc(C)on4)c(Cl)c3)c2cc1OC [Tivozanib] + CS(=O)(=O)CCNCc1ccc(-c2ccc3ncnc(Nc4ccc(OCc5cccc(F)c5)c(Cl)c4)c3c2)o1 [Lapatinib] (partner 2 µM) is strictly below 0.1.
Response line: Criterion not met

Prompt line: Dear colleague, could you confirm whether relative viability of Nc1ccn([C@@H]2O[C@H](CO)[C@@H](O)[C@@H]2O)c(=O)n1 [Cytarabine] + CC(C)C[C@H](NC(=O)[C@H](Cc1ccccc1)NC(=O)c1cnccn1)B(O)O [Bortezomib] (partner 0.002 µM) falls below 0.1? Thanks.
Response line: Criterion not met

Prompt line: Quick check: does Nc1ccn([C@@H]2O[C@H](CO)[C@@H](O)[C@@H]2O)c(=O)n1 [Cytarabine] + N=C(N)NC(=N)NCCc1ccccc1 [Phenformin] (partner 250 µM) have relative viability under 0.1?
Response line: Criterion met

Prompt line: hey, is relative viability for Nc1ccn([C@@H]2O[C@H](CO)[C@@H](O)[C@@H]2O)c(=O)n1 [Cytarabine] + Cc1nc(Nc2ncc(C(=O)Nc3c(C)cccc3Cl)s2)cc(N2CCN(CCO)CC2)n1 [Dasatinib] (partner 0.075 µM) lower than 0.1 or not?
Response line: Criterion met
